Reported growth values follow for various compounds
Test system: SNB-75 CNS
ASSAY_OVERVIEW: NCI-60 one-dose screen, 48 h (100 = growth as untreated, 0 = no growth, -100 = all killed)
DETAILS: 10 µM
Description: Growth inhibition of the SNB-75 human tumor cell line is measured as a screen for anti-cancer activity. Cells are grown in 96 well plates and exposed to the test compound for 48 hours. Compounds are tested at a single concentration, which is 10^-5 M for most compounds. The reported endpoint is percent growth (GI% or GIPRCNT), where numbers from 0 - 100% represent growth inhibition, and numbers from -100% - 0 represent cell death. For example, a value of 40 represents 60% growth inhibition. […]
About 83,000 compounds went through this panel and 20% of them were active in at least one assay; those are over-represented in the sample as a whole.
RECORDED_METRIC: growth (%)

>>> result_value("COc1ccc(OC)c(/C=C/c2nc(SCc3ccccc3)n(-c3ccc(Cl)cc3)n2)c1")
59.6
>>> result_value("COc1cc2c(cc1OCCCN1CCN(c3ncnc4ccccc34)CC1)N=CC1CCCN1C2=O (centres undefined)")
-29.8
>>> result_value("CCCCC/C=C/C(=O)CCc1ccc(O)c(OC)c1")
63
>>> result_value("COc1ccc(-c2nn(-c3cccc(NC(=O)c4cc(C(F)(F)F)cc(C(F)(F)F)c4)c3)cc2-c2ccncc2)cc1Cl")
60.9
>>> result_value("CN(C)CCN1C(=O)c2cccc3cc(N)cc(c23)C1=O")
-5.61
>>> result_value("COc1ccc(-c2nn(-c3cccc(NC(=O)Nc4ccc(Cl)c(C(F)(F)F)c4)c3)cc2-c2ccncc2)cc1Cl")
25.6
>>> result_value("O=C1/C(=C/c2ccc(Cl)cc2)SC(=Nc2ccc(Cl)cc2)N1Cc1nc2ccccc2[nH]1")
27.1
>>> result_value("CC(C)(Cl)CCC1=C(Cl)C(=O)c2ccccc2C1=O")
30.7
>>> result_value("CS(=O)(=O)Nc1cccc(-c2cc(-c3ccccc3Cl)c(C#N)c(N)n2)c1")
-26.4

----------
Test system: SK-OV-3 ovarian
ASSAY_OVERVIEW: NCI-60 one-dose screen, 48 h (100 = growth as untreated, 0 = no growth, -100 = all killed)
DETAILS: 10 µM
Procedure: Growth inhibition of the SK-OV-3 human tumor cell line is measured as a screen for anti-cancer activity. Cells are grown in 96 well plates and exposed to the test compound for 48 hours. Compounds are tested at a single concentration, which is 10^-5 M for most compounds. The reported endpoint is percent growth (GI% or GIPRCNT), where numbers from 0 - 100% represent growth inhibition, and numbers from -100% - 0 represent cell death. For example, a value of 40 represents 60% growth inhibition. […]
About 83,000 compounds went through this panel and 20% of them were active in at least one assay; those are over-represented in the sample as a whole.
RECORDED_METRIC: growth (%)

>>> result_value("O=C(Nc1ccncc1)C(=O)c1cn(S(=O)(=O)c2cc(Cl)cc(Cl)c2)c2ccccc12")
97.2
>>> result_value("Oc1[nH]c2cc(Cl)ccc2c1/C=c1/ccc2c(c1)N=C(c1cc(F)cc(F)c1)N=2")
1.53
>>> result_value("C=C(C(=O)c1ccccc1)C(NC(C)(C)C)c1ccccc1 (centres undefined)")
67.9
>>> result_value("CCCC1(CC(=O)O)OCCc2c1[nH]c1ccccc21 (centres undefined)")
217

----------
Reported growth values follow for various molecules
Test system: OVCAR-8 ovarian
ASSAY_OVERVIEW: NCI-60 one-dose screen, 48 h (100 = growth as untreated, 0 = no growth, -100 = all killed)
DETAILS: 10 µM
This is part of a sample that, as a whole, favours compounds with a hit. Of some 83,000 tested, about 20% had one in any assay.
RECORDED_METRIC: growth (%)

>>> result_value("C#Cc1ccc(-n2c(/C=C/c3ccc(O)c(OC)c3)nc3ncccc3c2=O)cc1")
97.1
>>> result_value("CS(=O)(=O)Nc1cccc(-c2cc(-c3ccccc3Cl)c(C#N)c(N)n2)c1")
44
>>> result_value("COc1ccc([N+](=O)[O-])c(C(=O)O)c1")
101
>>> result_value("COc1cc(/C(=C2/O[C@@H]([C@H]3COC(C)(C)O3)[C@H]3OC(C)(C)O[C@@H]23)c2ccc3ccccc3c2)cc(OC)c1OC")
18.9
>>> result_value("COc1cc(Nc2ccnc(NCCCNc3ccnc4cc(Cl)ccc34)n2)cc(OC)c1")
3.57
>>> result_value("COc1ccc(C2CC(c3ccc(N(C)C)cc3)=NN2c2ccc(S(N)(=O)=O)cc2)cc1 (stereo not given)")
42.3
>>> result_value("O=C1C(=O)c2ccccc2C(O)=C1CCCc1ccc(C2CCCCCC2)cc1")
46.8
>>> result_value("COc1cc(/C=N/NC(=O)c2ccccc2Nc2cccc(C(F)(F)F)c2)cc(OC)c1OC")
34.3
>>> result_value("CCCCCCN(CCCCCC)CC(O)c1ccc2c3c(cccc13)CC2 (stereo not given)")
68.4
>>> result_value("COc1cc(Cl)cc(-c2nn(-c3cccc(NC(=O)Nc4cc(C(F)(F)F)cc(C(F)(F)F)c4)c3)cc2-c2ccncc2)c1")
-2.46

----------
System: MCF7 breast
ASSAY_OVERVIEW: NCI-60 one-dose screen, 48 h
DETAILS: 10 µM
This is part of a sample that, as a whole, favours compounds with a hit. Of some 83,000 tested, about 20% had one in any assay. Activity calls are given as the source filed them. How the source made its calls: active means growth percent below 10; inactive means the rest.
Outcome codes: active, inactive

>>> group_label("Clc1cccc(-c2nc(-c3cccs3)no2)c1")
"inactive"
>>> group_label("CCOC(=O)C(=Cc1ccc(Br)cc1)C(=O)OCC")
"active"
>>> group_label("CCCCCCc1cc(N=Nc2ccc(S(=O)(=O)Nc3cc(C)nc(C)n3)cc2)c(O)cc1O")
"inactive"
>>> group_label("Cc1nc2ccc(CN(C)c3ccc(C(=O)N[C@@H](CCC(=O)O)C(=O)O)s3)cc2c(=O)[nH]1")
"inactive"
>>> group_label("Nc1ccc2c(c1)C1(CCC2)NC(=O)NC1=O (configuration not stated)")
"inactive"
>>> group_label("O=C1N=NC2=C1c1c3ccccc3c(O)n1CC2")
"inactive"
>>> group_label("COc1ccc(-c2nn(-c3cccc(NC(=O)Nc4cc(C(F)(F)F)cc(C(F)(F)F)c4)c3)cc2-c2ccncc2)cc1Cl")
"active"
>>> group_label("Cc1nc2c(c(=O)[nH]1)OCN(Cc1ccccc1)C2")
"inactive"
>>> group_label("C[C@]12CC[C@@H]3c4ccc(O)cc4C[C@@H](O)[C@H]3[C@@H]1CC[C@@H]2O")
"inactive"
>>> group_label("CCOC(=O)C1(CC(C)C)CCOC1=O (configuration not stated)")
"inactive"
>>> group_label("COc1cc(Cc2cc(-c3ccc(Cl)cc3)n[nH]c2=O)ccc1O")
"inactive"
>>> group_label("CCOC1(OCC)OC(c2ccccc2)=C(C#N)C(/C=C\\c2ccccc2)C1(OCC)OCC (configuration not stated)")
"inactive"
>>> group_label("Cc1nc2ccccc2c(N)c1-c1cc(C)c2c(C)nc3ccccc3c2n1")
"inactive"
>>> group_label("COc1cc(Nc2ncnc(Nc3ccc4c(n3)NC(=O)C(C)(C)O4)n2)cc(OC)c1OC")
"inactive"
>>> group_label("O=C1/C(=C\\c2ccccc2)CN(C(=O)c2ccccc2F)C/C1=C\\c1ccccc1")
"active"
>>> group_label("COc1ccc(-c2nn(-c3cccc(NC(=O)c4ccc5c(c4)OCCO5)c3)cc2-c2ccncc2)cc1Cl")
"active"
>>> group_label("C=C1c2c(C)nn(-c3ccc(OC)cc3)c2N(C)C23C[C@@H]1C1(C)c4c(C)nn(-c5ccc(OC)cc5)c4N(C)C(C)(C[C@H]12)C3 (some centres not stated)")
"inactive"
>>> group_label("CC12O[C@H](C[C@@H](O)[C@H]1O)n1c3ccccc3c3c4c(c5c6ccccc6n2c5c31)C(=O)N(CCCN)C4=O")
"inactive"
>>> group_label("COc1cc(Nc2ccnc(NCCNc3ccnc4cc(Cl)ccc34)n2)cc(OC)c1")
"active"
>>> group_label("COc1ccc2c(c1)C(=O)c1c-2c(OCCN(C)C)nc2ccccc12")
"active"
>>> group_label("COc1ccc2c(c1)N(CCO)C1=C(C(=O)OC1)C2c1cc(OC)c(OC)c(OC)c1 (configuration not stated)")
"inactive"
>>> group_label("CCN(CC)CCSCCN(CC)CC")
"inactive"

----------
Tested on: RXF 393 renal
ASSAY_OVERVIEW: NCI-60 one-dose screen, 48 h (100 = growth as untreated, 0 = no growth, -100 = all killed)
DETAILS: 10 µM
The panel holds about 83,000 compounds, 20% with a hit somewhere; the sample as a whole holds those more often.
Reported growth values follow for various molecules
RECORDED_METRIC: growth (%)

>>> result_value("Fc1cc(C(F)(F)F)ccc1-c1cncnc1NC1CCCCCC1")
88.5
>>> result_value("Cc1cc(N(CCCNc2ccnc3cc(Cl)ccc23)Cc2cccs2)nc(Cl)n1")
46.2
>>> result_value("COc1ccc2c(c1)O/C(=C\\c1ncc([N+](=O)[O-])n1C)C2=O")
-72
>>> result_value("COc1ccc2c(c1)N(CCO)C1=C(C(=O)OC1)C2c1cc(OC)c(OC)c(OC)c1 (stereo not given)")
55.5
>>> result_value("COc1ccc2c(c1)C(=O)c1c-2c(OCCN2CCCCC2)nc2ccc(OC)cc12")
47.3
>>> result_value("O=C(Nc1ccc(Cl)c([N+](=O)[O-])c1)Nc1nc2ccccc2s1")
113
>>> result_value("Cc1ccc(C(=O)Nc2cccc(F)c2)cc1NC(=O)C1(c2ncnc3[nH]ccc23)CC1")
91.5
>>> result_value("CC12O[C@H](C[C@@H](OC(=O)c3ccccc3)[C@H]1O)n1c3ccccc3c3c4c(c5c6ccccc6n2c5c31)C(=O)NC4=O")
15.6
>>> result_value("COc1cc(NC(=O)c2sc3nc4c(cc3c2N)C(O)CCC4)cc(OC)c1 (stereo not given)")
90.4
>>> result_value("CC(C)(C)NC/C(=C\\c1ccccc1)C(=O)c1ccccc1")
-66.4
>>> result_value("O=C(Nc1nc2ccc(F)cc2s1)c1cc(-c2ccc(F)cc2)n2nc(-c3ccccc3)cc2n1")
104
>>> result_value("Cc1c(Cl)cccc1NC(=O)c1sc2nc3c(cc2c1N)C(=O)CCC3")
-16.4
>>> result_value("COc1cc(NC(=O)CCSc2nc3ccc(Cl)cc3c(=O)n2Cc2ccccc2)cc(OC)c1OC")
57.2
>>> result_value("CC(=O)OCc1cc(-c2nc3ccccc3[nH]c2=O)nn1-c1ccc(Cl)cc1")
102
>>> result_value("O=C(Nc1ccc(Cl)c(Cl)c1)Nc1c(Oc2ccc(Cl)c(Cl)c2)ccc(Cl)c1S(=O)(=O)O")
-14.3
>>> result_value("CN(C)CCNC(=O)c1cccn2c(=O)c3cc4ccccc4cc3nc12")
-89.5
>>> result_value("O=C1C(c2ccccc2)C2C=CC(C2)N1O (stereo not given)")
104
>>> result_value("COc1cc(-c2nc(-c3nnc(-c4ccc(F)c(Cl)c4)o3)c3ccccn23)cc(OC)c1OC")
40.4
>>> result_value("O=C1C(=O)c2ccccc2C(O)=C1CCCc1ccc(C2CCCCCC2)cc1")
68.1
>>> result_value("COc1ccc(/C=C2/CN(C(=O)c3ccc(C)cc3)C/C(=C\\c3ccc(OC)cc3)C2=O)cc1")
92.3
